- Test system: Fibroblast
- assayOverview: Multiplex assay against human fibroblast
- Format: toxicity, cell-based
- statedConditions: 48 h, 10 µM, compound concentration 10 uM, replicate 2
Listed compounds paired with reported Population Pyknosed Nuclei (%)
# unit: % | format: bare number

Consider the worked cases shown below.
compound: CCCCC1=NC2(CCCC2)C(=O)N1Cc1ccc(-c2ccccc2-c2nnn[nH]2)cc1 [IRBESARTAN]
measuredQuantity: Population Pyknosed Nuclei (%)
val: 13
//
compound: O=C1[C@H](Cc2ccc(O)cc2)N2C(=O)CCN(C(=O)NCc3ccccc3)[C@H]2CN1Cc1cccc2ccccc12
measuredQuantity: Population Pyknosed Nuclei (%)
val: 14
//
compound: COc1ccccc1N1CCN(C[C@@H](C(=O)NC(C)(C)C)c2ccccc2)CC1.Cl.Cl
measuredQuantity: Population Pyknosed Nuclei (%)
val: 7

Which value of Population Pyknosed Nuclei (%) has been reported for Cc1cccc(NC(=O)CN2CCC(c3ccccn3)CC2)c1.Cl.Cl in the records?
6

Next entry: O=C(CCCc1ccccc1)Nc1nc2ccccc2c(=O)s1
16

Next entry: O=C(NCCN1CCC(n2c(=O)[nH]c3cc(Cl)ccc32)CC1)c1ccc(F)cc1 [HALOPEMIDE]
19

Next entry: CC(C)c1noc(N2CCC(COc3ccc(-c4ccc(S(C)(=O)=O)cc4)nc3)CC2)n1 [GSK-1292263]
17

Next entry: CCc1cc2cc(NS(=O)(=O)c3ccc(C#N)cc3)ccc2n(CC)c1=O
20

Next entry: Cc1sc2c(c1C)C(c1ccc(Cl)cc1)=N[C@@H](CC(=O)NCCCCCCCCNC(=O)COc1cccc3c1C(=O)N(C1CCC(=O)NC1=O)C3=O)c1nnc(C)n1-2 (stereo partly drawn)
23

Next entry: CCCCC(=O)N(Cc1ccc(-c2ccccc2-c2nnn[nH]2)cc1)[C@H](C(=O)O)C(C)C
20

Next entry: CC[C@@H](C)Nc1nc(C)nc2c(-c3ccc(OC)nc3C)c(C)nn12 [PEXACERFONT]
16

Next entry: Cc1noc(-c2ccc(-c3ccc(CC(=O)O)cc3)cc2)c1NC(=O)O[C@H](C)c1ccccc1Cl
22

Next entry: Cl.NCCc1ccc(O)c(O)c1 [DOPAMINE HYDROCHLORIDE]
8

Next entry: CC(C)(C)c1cc(NC(=O)Nc2ccc(-c3cn4c(n3)sc3cc(OCCN5CCOCC5)ccc34)cc2)no1 [QUIZARTINIB]
5

Next entry: C[C@H](N)COC(=O)[C@@H](CCCCN)NC(=O)Cc1c(-c2ccc3ccccc3c2)[nH]c2c1ccc1ccccc12
11
